# target-of-assay: Human CGRP1 Receptor (Homo sapiens, UniProt O60894+Q16602)
# Construct: endogenous in cells; host or cells: SK-N-MC cells (membrane homogenate)
# Sequence (Q16602 23-461): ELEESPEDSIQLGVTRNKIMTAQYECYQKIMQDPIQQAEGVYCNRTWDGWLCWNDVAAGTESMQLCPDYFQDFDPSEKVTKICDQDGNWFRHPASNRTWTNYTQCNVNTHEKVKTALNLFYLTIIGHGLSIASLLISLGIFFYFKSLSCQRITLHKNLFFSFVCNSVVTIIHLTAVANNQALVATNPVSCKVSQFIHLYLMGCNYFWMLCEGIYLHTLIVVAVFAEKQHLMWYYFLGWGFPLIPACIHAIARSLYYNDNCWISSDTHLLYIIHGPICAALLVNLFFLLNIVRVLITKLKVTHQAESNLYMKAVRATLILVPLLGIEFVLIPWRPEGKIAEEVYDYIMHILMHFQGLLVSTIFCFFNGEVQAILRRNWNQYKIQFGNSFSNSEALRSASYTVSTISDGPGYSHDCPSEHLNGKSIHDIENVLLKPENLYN
# Sequence (O60894 27-148): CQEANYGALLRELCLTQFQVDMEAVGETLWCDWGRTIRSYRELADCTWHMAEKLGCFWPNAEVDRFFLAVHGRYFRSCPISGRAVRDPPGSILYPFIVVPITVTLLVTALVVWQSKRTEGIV
# protocol-text: CGRP Binding Assay ([125I]-CGRP radioligand displacement, SK-N-MC membrane homogenate)
# cond: [125I]-CGRP displacement, SK-N-MC homogenate, room temperature 2 h; read-out: Human CGRP1 Receptor IC50
value-kind: IC50

Look over these answered cases.
INSERT INTO assay_data (compound, value_kind, meas_value) VALUES
  ('Cc1cc(CC(NC(=O)N2CCC(N3Cc4ccccc4NC3=O)CC2)c2nccn2Cc2ccc(C(C)(C)C)cc2)cc2cn[nH]c12 (racemic)', 'IC50', '< 10 nM'),
  ('CC1=CC(CC(CC(=O)N2CCC(N3Cc4cccc(F)c4NC3=O)CC2)c2nccn2Cc2ccc(C(C)(C)C)cc2)=CC2C=NNC12 (centres unmarked)', 'IC50', '< 10 nM'),
  ('Cc1cc(CC(NC(=O)N2CCC(N3Cc4ccccc4NC3=O)CC2)c2cccc(Br)n2)cc2cn[nH]c12 (racemic)', 'IC50', '< 10 nM'),
  ('Cc1cccc(C(Cc2cc(C)c3[nH]ncc3c2)NC(=O)N2CCC(N3Cc4ccccc4NC3=O)CC2)n1 (racemic)', 'IC50', '< 10 nM'),
  ('Cc1cc(CC(CC(=O)N2CCC(N3Cc4ccccc4NC3=O)CC2)c2ccc(CO)cn2)cc2cn[nH]c12 (racemic)', 'IC50', '< 10 nM'),
  ('Cc1cc(Cn2ccnc2C(Cc2cc(C)c3[nH]ncc3c2)NC(=O)N2CCC(N3Cc4ccccc4NC3=O)CC2)ccn1 (racemic)', 'IC50', '< 10 nM'),
  ('Cc1cc(CC(OC(=O)N2CCC(N3Cc4ccccc4NC3=O)CC2)c2cc3ccccc3cn2)cc2cn[nH]c12 (centres unmarked)', 'IC50', '< 10 nM'),
  ('Cc1cc(CC(NC(=O)N2CCC(N3Cc4ccccc4NC3=O)CC2)c2nccn2CCc2ccccc2)cc2cn[nH]c12 (racemic)', 'IC50', '< 10 nM'),
  ('Cc1cc(CC(OC(=O)N2CCC(N3Cc4ccccc4NC3=O)CC2)c2ccco2)cc2cn[nH]c12 (centres unmarked)', 'IC50', '10 to 100 nM'),
  ('Cc1cc(C[C@@H](OC(=O)N2CCC(c3cc4ccccc4[nH]c3=O)CC2)c2nc(-c3ccc(F)cc3)no2)cc2cn[nH]c12', 'IC50', '100 to 1000 nM');

List reported IC50 for each of these compounds:
1. Cc1cc(CC(NC(=O)N2CCC(N3Cc4cccc(F)c4NC3=O)CC2)c2nnc3ccccn23)cc2cn[nH]c12 (racemic)
2. Cc1cc(CC(NC(=O)N2CCC(N3Cc4cccc(F)c4NC3=O)CC2)c2nnn(CC3CCNCC3)n2)cc2cn[nH]c12 (racemic)
3. Cc1cc(CC(NC(=O)N2CCC(N3Cc4ccccc4NC3=O)CC2)c2nc(Cc3ccccc3)no2)cc2cn[nH]c12 (racemic)
4. Cc1cc(C)nc(C(Cc2cc(C)c3[nH]ncc3c2)OC(=O)N2CCC(c3cc4ccccc4[nH]c3=O)CC2)n1 (centres unmarked)
5. Cc1cc(CC(NC(=O)N2CCC(N3Cc4ccccc4NC3=O)CC2)c2nccn2Cc2cccnc2)cc2cn[nH]c12 (racemic)

A)
1: < 10 nM; 2: 10 to 100 nM; 3: < 10 nM; 4: 100 to 1000 nM; 5: < 10 nM

List reported IC50 for each of these compounds:
1. Cc1cc(CC(NC(=O)N2CCC(N3Cc4ccccc4NC3=O)CC2)c2nc(CN(C)C)no2)cc2cn[nH]c12 (racemic)
2. Cc1cc(Cn2ccnc2C(Cc2cc(C)c3[nH]ncc3c2)NC(=O)N2CCC(N3Cc4ccccc4NC3=O)CC2)cc(Cl)n1 (racemic)
3. Cc1cc(C[C@@H](OC(=O)N2CCC(c3cc4ccccc4[nH]c3=O)CC2)c2nc(-c3cccnc3)no2)cc2cn[nH]c12
4. Cc1cccnc1C(CC(=O)N1CCC(N2Cc3ccccc3NC2=O)CC1)Cc1cc(C)c2[nH]ncc2c1 (racemic)
5. Cc1cc(CC(CC(=O)N2CCC(c3cc4ccccc4[nH]c3=O)CC2)c2ccccn2)cc2cn[nH]c12 (racemic)
6. Cc1cc(CC(OC(=O)N2CCC(N3Cc4ccccc4NC3=O)CC2)c2ccc3ccccc3n2)cc2cn[nH]c12 (centres unmarked)
7. Cc1cc(CC(OC(=O)N2CCC(N3Cc4ccccc4NC3=O)CC2)c2cc3ccccc3o2)cc2cn[nH]c12 (centres unmarked)

A)
1: 100 to 1000 nM; 2: < 10 nM; 3: 10 to 100 nM; 4: < 10 nM; 5: 10 to 100 nM; 6: < 10 nM; 7: 10 to 100 nM

List reported IC50 for each of these compounds:
1. CCn1c(C(CC(=O)N2CCC(N3Cc4ccccc4NC3=O)CC2)CC2=CC3C=NNC3C(C)=C2)nc2ccccc21 (centres unmarked)
2. CC1=CC(CC(CC(=O)N2CCC(N3Cc4ccccc4NC3=O)CC2)c2nc3ccccc3[nH]2)=CC2C=NNC12 (centres unmarked)
3. Cc1cc(CC(OC(=O)N2CCC(N3Cc4ccccc4NC3=O)CC2)c2cc(C(=O)N3CCCCC3)ccn2)cc2cn[nH]c12 (racemic)
4. Cc1cc(CC(NC(=O)N2CCC(N3Cc4ccccc4NC3=O)CC2)c2nccn2Cc2cccc(C(=O)O)c2)cc2cn[nH]c12 (racemic)

A)
< 10 nM
< 10 nM
< 10 nM
< 10 nM
